tested on: NCI-H2052 (Mesothelioma); experiment: Bliss excess, mean over the matrix (fraction); higher = more synergy;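 also: after 72 h of two-drug dosing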
Please enter 1.0 where Bliss excess is greater than or equal to -0.05, and 0.0 where it is lower.

A selection of reference data follows.
>  <molecule>
C[C@@H](c1ccc2nccn2c1)n1nnc2ncc(-c3cnn(C)c3)nc21 [Savolitinib] + CC1(C)CCC(CN2CCN(c3ccc(C(=O)NS(=O)(=O)c4ccc(NCC5CCOCC5)c([N+](=O)[O-])c4)c(Oc4cnc5[nH]ccc5c4)c3)CC2)=C(c2ccc(Cl)cc2)C1 [Venetoclax] (first compound max 1 µM, 7x7, partner max 1 µM)

>  <category>
0.0

$$$$
>  <molecule>
CS(=O)(=O)CCNCc1ccc(-c2ccc3ncnc(Nc4ccc(OCc5cccc(F)c5)c(Cl)c4)c3c2)o1 [Lapatinib] + C[C@@H](Oc1cc(-c2cnn(C3CCNCC3)c2)cnc1N)c1c(Cl)ccc(F)c1Cl [Crizotinib] (first compound max 10 µM, 7x7, partner max 10 µM)

>  <category>
0.0

$$$$
>  <molecule>
NC1(C(=O)N[C@@H](CCO)c2ccc(Cl)cc2)CCN(c2ncnc3[nH]ccc23)CC1 [Capivasertib] + C[C@@H]1COCCN1C2=NC(=NC(=C2)C3(CC3)[S@](=N)(=O)C)C4=C5C=CNC5=NC=C4 [AZD6738] (first compound max 10 µM, 7x7, partner max 10 µM)

>  <category>
0.0

$$$$
>  <molecule>
Cn1cnc2c(F)c(Nc3ccc(Br)cc3Cl)c(C(=O)NOCCO)cc21 [Selumetinib] + C=CCn1c(=O)c2cnc(Nc3ccc(N4CCN(C)CC4)cc3)nc2n1-c1cccc(C(C)(C)O)n1 [AZD1775] (first compound max 10 µM, partner max 1 µM)

>  <category>
0.0

$$$$

Lookup: Form field: Bliss excess at least -0.05? Entry: C[C@@H](c1ccc2nccn2c1)n1nnc2ncc(-c3cnn(C)c3)nc21 [Savolitinib] + Cc1c2c(nn1C)CSCc1cc(n(C)n1)CSc1cc(c3ccccc3c1)OCCCc1c(C(=O)O)n(C)c3c-2c(Cl)ccc13 [AZD5991] (first compound max 1 µM, 7x7, partner max 1 µM)
Found: 1.0

Lookup: Form field: Bliss excess at least -0.05? Entry: C[C@@H]1COCCN1c1cc(C2([S@](C)(=N)=O)CC2)nc(-c2ccnc3[nH]ccc23)n1 [AZD6738] + O=C(c1cc(Cc2n[nH]c(=O)c3ccccc23)ccc1F)N1CCN(C(=O)C2CC2)CC1 [Olaparib] (first compound max 10 µM, 7x7, partner max 10 µM)
Found: 1.0

Lookup: Form field: Bliss excess at least -0.05? Entry: CN(CCO)CC[C@H](CSc1ccccc1)Nc1ccc(S(=O)(=O)NC(=O)c2ccc(N3CCC([C@@H](O)c4ccccc4-c4ccc(Cl)cc4)CC3)cc2)cc1S(=O)(=O)C(F)(F)F [AZD4320] + C1CN(CCC1(C(=O)N[C@@H](CCO)C2=CC=C(C=C2)Cl)N)C3=NC=NC4=C3C=CN4 [Capivasertib] (first compound max 1 µM, 7x7, partner max 3 µM)
Found: 0.0
